Kindly supply the reported abundance fitness values for the records listed here.
B1: Intersectin-1, residues 909 to 971; numbered along this chain, Q15811 (parent)
chain: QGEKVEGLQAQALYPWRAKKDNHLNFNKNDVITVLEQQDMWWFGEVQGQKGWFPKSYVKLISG

variants of: B1; test: abundance fitness (aPCA) (normalised: wild type 0, dead -1); higher = more abundant; growth selection in yeast, the domain comes from the species named; conditions: Homo sapiens
Give bare numbers.

Sure, the documented abundance fitness for D21F is -0.131

Sure, the documented abundance fitness for G44D is -0.999

Sure, the documented abundance fitness for E45I is -0.192

Sure, the documented abundance fitness for W42F is -0.057

Sure, the documented abundance fitness for H23V is -0.172

I would be grateful if you could provide abundance fitness for each of the following entries.
1. E36D
2. F43M
3. E3Q
4. N29F

*A*
[-0.761, -0.107, 0.026, -0.196]
